Data provenance is PubChem BioAssay (NCI).

System: A498 renal
ASSAY DETAILS: NCI tumour cell line growth inhibition, 48 h
MEASURE: TGI

For orientation, consider the following solved cases.
[
  {
    "MOLECULE": "Cc1ccc(C)c(NC(=O)/C(=N\\NC(N)=S)C(C#N)c2ccccc2)c1 (centres undefined)",
    "EXPERIMENTAL SYSTEM": "A498 renal",
    "TGI": "> 100 µM"
  },
  {
    "MOLECULE": "Cc1cc2ccccc2c[n+]1CC(=O)CC([O-])(C(F)(F)F)C(F)(F)F",
    "EXPERIMENTAL SYSTEM": "A498 renal",
    "TGI": "> 100 µM"
  },
  {
    "MOLECULE": "COc1ccc(N=Cc2ccc(N(CCC#N)CCC#N)cc2)cc1",
    "EXPERIMENTAL SYSTEM": "A498 renal",
    "TGI": "> 100 µM"
  },
  {
    "MOLECULE": "COc1cc2c(cc1OCCCC(=O)Nc1cc(C(=O)Nc3cc(C(=O)NCCCN(C)C)n(C)n3)n(C)n1)N=CC1CCCN1C2=O (centres undefined)",
    "EXPERIMENTAL SYSTEM": "A498 renal",
    "TGI": "59.2 µM"
  }
]

Returns the measured TGI for the input molecule. Input: CC(=O)C(=C(I)I)c1ccccc1
40.7 µM

Please give the result for Nc1ncnc2c1ncn2C1OC(C(=O)O)C(O)C1O (centres undefined) too.
> 100 µM

Same again, this time with CC(NCCS(=O)(=O)O)C(=O)O (centres undefined)
> 100 µM

Moving on to the next molecule: c1cc2c(cnc3cscc32)s1
> 100 µM

Lookup CCCN(CCCCC(NC(C)=O)C(=O)NCc1ccccc1)C(=O)NC (centres undefined)
> 100 µM
